Each recorded value in this set is attributed to patent US20240140941A1.

test system: HT-29; experiment: Inhibition test on cell proliferation (MTT), HT-29; format: cell-based, human; conditions: Homo sapiens, HT-29, 72 h, 72 hours of drug treatment
Counter-ions that a name gives are not always drawn.
Parameter: IC50 (nM)

Examples from the recorded data:
>  <Compound>
CC(C)c1c(/C=c2\[nH]c(=O)/c(=C/c3cccc(OC(F)(F)F)c3)[nH]c2=O)ncn1CCCN1CCOCC1

>  <IC50 (nM)>
9.71

$$$$
>  <Compound>
CC(C)c1c(/C=c2\[nH]c(=O)/c(=C/c3cccc4ccccc34)[nH]c2=O)ncn1CCCN1CCOCC1

>  <IC50 (nM)>
6.55

$$$$
>  <Compound>
CC(C)c1c(/C=c2\[nH]c(=O)/c(=C/c3cccc(C(=O)c4ccc(F)cc4)c3)[nH]c2=O)ncn1CCCN1CCOCC1 [PLN-2-1-2, mesylate]

>  <IC50 (nM)>
1.42

$$$$
>  <Compound>
Cc1ccccc1/C=c1\[nH]c(=O)/c(=C/c2ncn(CCCN3CCOCC3)c2C(C)C)[nH]c1=O

>  <IC50 (nM)>
35.2

$$$$
>  <Compound>
Cc1cccc(/C=c2\[nH]c(=O)/c(=C/c3ncn(CCCN4CCOCC4)c3C(C)C)[nH]c2=O)c1C

>  <IC50 (nM)>
37.1

$$$$

I: CC(C)c1c(/C=c2\[nH]c(=O)/c(=C/c3cccc(F)c3)[nH]c2=O)ncn1CCCN1CCO[C@H](C)C1
II: O=c1[nH]/c(=C\c2ncn(CCCN3CCOCC3)c2C2CC2)c(=O)[nH]/c1=C\c1cccc(F)c1
(Q) Which of the two gives a bigger number for IC50: I or II ? # respond with the chosen item's label
(A) II

* * *

Some molecules, each annotated with its measured melting point.
Structures can show the parent of a compound that is named as a salt.

Use these answered entries as a reference point.
>  <Molecule>
CC(C)c1c(/C=c2\[nH]c(=O)/c(=C/c3cccc4ccccc34)[nH]c2=O)ncn1CCCN1CCOCC1 [PLN-2-54]

>  <melting point>
248 to 250 °C

$$$$
>  <Molecule>
CCOCC1CN(CCCn2cnc(/C=c3\[nH]c(=O)/c(=C/c4cccc(F)c4)[nH]c3=O)c2C(C)C)CCO1 (stereo not shown) [PLN-2-58]

>  <melting point>
202 to 204 °C

$$$$
>  <Molecule>
CC(C)c1c(/C=c2\[nH]c(=O)/c(=C/c3cccc(Oc4ccc(F)cc4)c3)[nH]c2=O)ncn1CCCN1CCOCC1 [PLN-2-2]

>  <melting point>
194 to 195 °C

$$$$
>  <Molecule>
CC(C)c1c(/C=c2\[nH]c(=O)/c(=C/c3cccc(F)c3)[nH]c2=O)ncn1CCCN1CCOC(COCc2ccccc2)C1 (stereo not shown) [PLN-2-60]

>  <melting point>
157 to 159 °C

$$$$

(Q) Please look up its melting point: Cc1cccc(/C=c2\[nH]c(=O)/c(=C/c3ncn(CCCN4CCOCC4)c3C(C)C)[nH]c2=O)c1 [PLN-2-51]
(A) 178 to 180 °C

(Q) GET /values?readout=melting point&item= CC(C)c1c(/C=c2\[nH]c(=O)/c(=C/c3cccc(OC(F)(F)F)c3)[nH]c2=O)ncn1CCCN1CCOCC1 [PLN-2-53]
(A) 251 to 253 °C

(Q) Returns the measured melting point for the input molecule. Input: CC(C)c1c(/C=c2\[nH]c(=O)/c(=C/c3cc(F)ccc3F)[nH]c2=O)ncn1CCCN1CCOCC1 (as salt: hydrochloride) [PLN-2-7-1]
(A) 174 to 176 °C
